Hi there, I'd appreciate the recorded IC50 for every entry that follows.
tested target: DRB4*0101 (Homo sapiens, UniProt P01903+P13762, G164S)
Construct: made in house; host or cells: EBV-transformed homozygous human B cell lines, transfected fibroblasts or single-allele 721.221 transfectants
protocol summary: biochemical
Type: binding
test settings: IC50 nM to purified HLA DRB4*0101
Give your result as the value with the unit written after it.

Please review the entries below; each comes with its answer.
INSERT INTO assay_data (smiles_text, readout_name, test_value) VALUES
  ('CSCC[C@H](NC(=O)[C@H](CCCNC(=N)N)NC(=O)[C@H](CCSC)NC(=O)[C@@H](N)C(C)C)C(=O)NCC(=O)N[C@@H](CC(=O)O)C(=O)N[C@@H](CC(C)C)C(=O)N[C@@H](Cc1c[nH]cn1)C(=O)N[C@@H](CO)C(=O)N[C@@H](CC(C)C)C(=O)N[C@@H](CCC(N)=O)C(=O)N[C@@H](CC(N)=O)C(=O)N[C@@H](CCCNC(=N)N)C(=O)N[C@@H](CC(N)=O)C(=O)NCC(=O)O', 'IC50', '8820 nM'),
  ('CC[C@H](C)[C@H](NC(=O)[C@@H](NC(=O)[C@H](CCCNC(=N)N)NC(=O)[C@H](CCC(N)=O)NC(=O)[C@@H](NC(=O)[C@@H](NC(=O)[C@H](CCSC)NC(=O)[C@H](CCCCN)NC(=O)[C@H](CCCCN)NC(=O)[C@@H](N)[C@@H](C)O)C(C)C)[C@@H](C)O)[C@@H](C)O)C(=O)NCC(=O)N[C@@H](CCCCN)C(=O)N[C@@H](CCCCN)C(=O)N[C@@H](CCCCN)C(=O)N[C@@H](CCC(N)=O)C(=O)O', 'IC50', '57 nM'),
  ('CC[C@H](C)[C@H](NC(=O)CNC(=O)[C@H](CO)NC(=O)[C@@H](NC(=O)CNC(=O)[C@H](Cc1ccccc1)NC(=O)[C@H](CO)NC(=O)[C@@H]1CCCN1C(=O)[C@@H](N)CC(C)C)C(C)C)C(=O)N[C@@H](CC(N)=O)C(=O)N[C@@H](CCC(=O)O)C(=O)N[C@@H](CO)C(=O)N[C@@H](C)C(=O)N[C@@H](CC(=O)O)C(=O)N[C@@H](CCSC)C(=O)O', 'IC50', '48 nM');

Batch lookup, IC50 per entry.
1. CSCC[C@H](NC(=O)[C@H](CC(C)C)NC(=O)[C@@H](NC(=O)[C@H](CCCNC(=N)N)NC(=O)[C@H](Cc1c[nH]cn1)NC(=O)[C@@H]1CCCN1C(=O)[C@H](CO)NC(=O)[C@H](CCCNC(=N)N)NC(=O)[C@H](CC(=O)O)NC(=O)[C@H](CCCCN)NC(=O)[C@@H](NC(=O)[C@@H](NC(=O)CNC(=O)[C@@H](N)CC(N)=O)[C@@H](C)O)C(C)C)[C@@H](C)O)C(=O)N[C@@H](CO)C(=O)O
2. CC[C@H](C)[C@H](NC(=O)[C@H](CCC(N)=O)NC(=O)[C@H](Cc1ccc(O)cc1)NC(=O)[C@H](CCC(=O)O)NC(=O)[C@H](CC(C)C)NC(=O)[C@@H](N)CC(N)=O)C(=O)NCC(=O)N[C@@H](Cc1ccc(O)cc1)C(=O)N[C@H](C(=O)N[C@@H](CS)C(=O)N[C@@H](CO)C(=O)NCC(=O)N[C@H](C(=O)N[C@@H](Cc1ccccc1)C(=O)NCC(=O)O)C(C)C)[C@@H](C)CC

## Result
1. 8880 nM
2. 354 nM

----------
tested target: DRB1*1101 (Homo sapiens, UniProt P01903+P01911, A100R/A169T/A87E/I96F/K41T/L162R/M171V/P40S/Q125H/Q178H/Q39Y/Q99D/R42S/S66Y/T262R/V115G/W38E)
Sequence (P01903 26-254 limits assumed, other chains not shown): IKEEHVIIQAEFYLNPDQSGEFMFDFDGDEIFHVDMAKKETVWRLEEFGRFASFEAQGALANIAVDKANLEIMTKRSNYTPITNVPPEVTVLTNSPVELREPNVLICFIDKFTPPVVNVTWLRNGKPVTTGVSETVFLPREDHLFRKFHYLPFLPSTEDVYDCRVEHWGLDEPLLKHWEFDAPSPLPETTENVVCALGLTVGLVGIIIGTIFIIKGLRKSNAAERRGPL
protocol summary: biochemical
Assay type: binding
test settings: read-out: IC50 nM to purified HLA DRB1*1101
I'd be grateful if you could share measured IC50 for these entries.
Give bare numbers, in nM.

INSERT INTO measurements (compound, test_value) VALUES
  ('CC[C@H](C)[C@H](NC(=O)[C@H](CCC(=O)O)NC(=O)[C@H](Cc1ccccc1)NC(=O)[C@@H](N)CCCNC(=N)N)C(=O)N[C@H](C(=O)NCC(=O)N[C@H](C(=O)N[C@@H](CCSC)C(=O)N[C@@H](CCCNC(=N)N)C(=O)N[C@@H](CCCNC(=N)N)C(=O)N[C@@H](CC(C)C)C(=O)N[C@@H](C)C(=O)N[C@@H](CC(=O)O)C(=O)N[C@@H](CCC(N)=O)C(=O)N[C@@H](CO)C(=O)O)[C@@H](C)O)[C@@H](C)O [Flu.PA.207]', 19);

Next item in the queue.
## Task Identify measured IC50 corresponding to CC[C@H](C)[C@H](NC(=O)[C@H](CCC(N)=O)NC(=O)[C@H](CC(C)C)NC(=O)[C@H](CCSC)NC(=O)[C@H](CC(C)C)NC(=O)[C@@H](N)CO)C(=O)NCC(=O)N[C@@H](CC(N)=O)C(=O)N[C@@H](CCSC)C(=O)N[C@H](C(=O)N[C@@H](CO)C(=O)N[C@H](C(=O)N[C@@H](Cc1c[nH]c2ccccc12)C(=O)N[C@H](C(=O)N[C@@H](CO)C(=O)N[C@@H](Cc1c[nH]cn1)C(=O)N[C@@H](CO)C(=O)O)C(C)C)[C@@H](C)CC)[C@@H](C)CC [Flu.NA.21]
## Result 83

----------
tested target: DRB1*0802 (Homo sapiens, UniProt P01903+P01911, A100R/A103L/A169T/F76Y/H45Y/I96F/K41T/L162R/M171V/P40S/Q125H/Q178H/Q39Y/Q99D/R218S/R42G/S66Y/V115G/W38E)
protocol summary: biochemical
Format: binding
readout name: IC50
Don't forget the unit after the number, please.

INSERT INTO measurements (smiles_text, readout_name, test_value) VALUES
  ('CC[C@H](C)[C@H](NC(=O)[C@H](CC(C)C)NC(=O)[C@H](Cc1ccccc1)NC(=O)CNC(=O)[C@H](CCCNC(=N)N)NC(=O)[C@H](CC(C)C)NC(=O)[C@@H](NC(=O)[C@H](C)NC(=O)[C@H](CO)NC(=O)[C@@H](N)CCC(=O)O)C(C)C)C(=O)N[C@@H](CC(C)C)C(=O)NCC(=O)N[C@@H](CCCCN)C(=O)N[C@@H](CCC(=O)O)C(=O)N[C@@H](CC(=O)O)C(=O)O', 'IC50', '803 nM');

Continue with the next compound.
## Task Supply measured IC50 of CC[C@H](C)[C@H](N)C(=O)NCC(=O)N[C@@H](CCCNC(=N)N)C(=O)N[C@@H](Cc1ccccc1)C(=O)N[C@@H](Cc1ccc(O)cc1)C(=O)N[C@H](C(=O)N[C@@H](CCC(N)=O)C(=O)N[C@@H](CCSC)C(=O)N[C@@H](CS)C(=O)N[C@H](C(=O)N[C@@H](CCC(=O)O)C(=O)N[C@@H](CC(C)C)C(=O)N[C@@H](CCCCN)C(=O)N[C@@H](CC(C)C)C(=O)N[C@@H](CO)C(=O)O)[C@@H](C)O)[C@@H](C)CC in your reply.
## Result 130 nM

----------
tested target: DRB1*0101 (Homo sapiens, UniProt P01903+P01911, A100R/D57E/F55L/F60I/F76Y/I96L/L162R/M171V/P40L/Q125E/R42F/V115G/Y59C)
Construct: made in house; host or cells: EBV-transformed homozygous human B cell lines, transfected fibroblasts or single-allele 721.221 transfectants
protocol summary: biochemical
Assay type: binding
test settings: IC50 nM to purified HLA DRB1*0101, Table 4
readout name: IC50 (nM)
Numbers only, in nM.

Worked set:
INSERT INTO assay_data (smiles_text, readout_name, test_value) VALUES
  ('CC[C@H](C)[C@H](N)C(=O)NCC(=O)N[C@@H](CCCNC(=N)N)C(=O)N[C@@H](Cc1ccccc1)C(=O)N[C@@H](Cc1ccc(O)cc1)C(=O)N[C@H](C(=O)N[C@@H](CCC(N)=O)C(=O)N[C@@H](CCSC)C(=O)N[C@@H](CS)C(=O)N[C@H](C(=O)N[C@@H](CCC(=O)O)C(=O)N[C@@H](CC(C)C)C(=O)N[C@@H](CCCCN)C(=O)N[C@@H](CC(C)C)C(=O)N[C@@H](CO)C(=O)O)[C@@H](C)O)[C@@H](C)CC', 'IC50', 64),
  ('CC[C@H](C)[C@H](NC(=O)[C@H](CCC(N)=O)NC(=O)[C@H](CC(C)C)NC(=O)[C@H](CCSC)NC(=O)[C@H](CC(C)C)NC(=O)[C@@H](N)CO)C(=O)NCC(=O)N[C@@H](CC(N)=O)C(=O)N[C@@H](CCSC)C(=O)N[C@H](C(=O)N[C@@H](CO)C(=O)N[C@H](C(=O)N[C@@H](Cc1c[nH]c2ccccc12)C(=O)N[C@H](C(=O)N[C@@H](CO)C(=O)N[C@@H](Cc1c[nH]cn1)C(=O)N[C@@H](CO)C(=O)O)C(C)C)[C@@H](C)CC)[C@@H](C)CC', 'IC50', 36);

Okay, next one:
## Task Kindly indicate its recorded IC50. Item: CC[C@H](C)[C@H](NC(=O)[C@H](CCC(=O)O)NC(=O)CNC(=O)[C@@H](N)C(C)C)C(=O)N[C@@H](CO)C(=O)N1CCC[C@H]1C(=O)N[C@@H](CC(C)C)C(=O)N1CCC[C@H]1C(=O)N[C@@H](CO)C(=O)N[C@@H](CC(C)C)C(=O)N1CCC[C@H]1C(=O)NCC(=O)N[C@@H](Cc1c[nH]cn1)C(=O)N[C@H](C(=O)N[C@@H](CC(=O)O)C(=O)O)[C@@H](C)O
## Result 14

Data credit: patent US9511134B2
